Target: T1, PF4/heparin complex (human PF4 complexed with heparin) (human, UniProt P02776 32-101)
T1 construct: Multimeric complex of PF4 with heparin (not a protein); In the EIAs: PF4 captured on biotinylated heparin on streptavidin plates; In the SRA: platelets with 0.2 U/mL heparin; also called PF4 and heparin complexes
T1 sequence: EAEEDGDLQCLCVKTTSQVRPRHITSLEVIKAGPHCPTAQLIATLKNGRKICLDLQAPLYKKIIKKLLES
Experiment: BLI (Octet), biotinylated PF4/heparin on streptavidin sensors, scFv at 1 µg/mL, 1:1 model, mean ± s.d.
Listed binders paired with reported koff

# Binder, koff [s⁻¹]
rows = [
    ("Mutant F scFv, scFv(E183V, E186K, G223R) (scFv, VL-linker-VH; histidine-tagged, from E. coli BL21; also called Mut F; not shown: histidine tag from the pADL-22c vector) scFv: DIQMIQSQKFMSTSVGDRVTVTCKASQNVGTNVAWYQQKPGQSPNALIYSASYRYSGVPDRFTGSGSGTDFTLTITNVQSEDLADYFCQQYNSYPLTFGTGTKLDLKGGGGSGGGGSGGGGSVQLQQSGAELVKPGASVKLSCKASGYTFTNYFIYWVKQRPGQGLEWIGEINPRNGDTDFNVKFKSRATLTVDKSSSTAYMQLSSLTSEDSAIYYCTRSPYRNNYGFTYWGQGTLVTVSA", "1.41e-05"),
    ("Mutant E scFv, scFv(Y156H, D180G, Q233P) (scFv, VL-linker-VH; histidine-tagged, from E. coli BL21; also called Mut E; not shown: histidine tag from the pADL-22c vector) scFv: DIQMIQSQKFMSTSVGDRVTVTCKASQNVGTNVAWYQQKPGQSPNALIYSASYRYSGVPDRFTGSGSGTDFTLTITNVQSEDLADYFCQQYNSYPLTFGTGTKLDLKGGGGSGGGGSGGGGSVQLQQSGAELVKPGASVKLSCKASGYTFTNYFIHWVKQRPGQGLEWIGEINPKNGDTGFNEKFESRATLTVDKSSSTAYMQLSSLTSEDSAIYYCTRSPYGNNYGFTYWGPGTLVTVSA", "2.78e-05"),
    ("Mutant D scFv, scFv(Y156H) (scFv, VL-linker-VH; histidine-tagged, from E. coli BL21; also called Mut D; not shown: histidine tag from the pADL-22c vector) scFv: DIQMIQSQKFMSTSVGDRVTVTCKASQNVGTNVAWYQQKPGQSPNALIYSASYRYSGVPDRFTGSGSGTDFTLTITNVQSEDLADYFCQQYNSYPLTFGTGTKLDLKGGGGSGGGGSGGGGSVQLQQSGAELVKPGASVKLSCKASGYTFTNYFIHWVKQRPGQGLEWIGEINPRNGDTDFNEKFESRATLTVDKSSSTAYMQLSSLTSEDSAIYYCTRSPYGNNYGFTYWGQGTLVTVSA", "3.47e-05"),
    ("Wildtype scFv (KKO-derived single chain variable fragment) (scFv, VL-(G4S)3 linker-VH; expressed in E. coli BL21 from pADL-22c, purified on Ni-NTA as histidine-tagged scFv, about 28 kDa; also called WT; KKO-scFv; not shown: histidine tag from the pADL-22c vector) scFv: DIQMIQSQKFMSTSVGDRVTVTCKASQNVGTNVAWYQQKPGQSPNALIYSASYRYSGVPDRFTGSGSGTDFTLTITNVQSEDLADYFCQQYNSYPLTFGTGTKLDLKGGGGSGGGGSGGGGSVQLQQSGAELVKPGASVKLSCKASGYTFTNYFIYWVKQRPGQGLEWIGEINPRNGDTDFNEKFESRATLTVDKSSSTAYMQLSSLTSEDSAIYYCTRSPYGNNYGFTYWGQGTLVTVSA", 0.000519),
    ("Mutant C scFv, scFv(S50N, Y53H) (scFv, VL-linker-VH; histidine-tagged, from E. coli BL21; also called Mut C; not shown: histidine tag from the pADL-22c vector) scFv: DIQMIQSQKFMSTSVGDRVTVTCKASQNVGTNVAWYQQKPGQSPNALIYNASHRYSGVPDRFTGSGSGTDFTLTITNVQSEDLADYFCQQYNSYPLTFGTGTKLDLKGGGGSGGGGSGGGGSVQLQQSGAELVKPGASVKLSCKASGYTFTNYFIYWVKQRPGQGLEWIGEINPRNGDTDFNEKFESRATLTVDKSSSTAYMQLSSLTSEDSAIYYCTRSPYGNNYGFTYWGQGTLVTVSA", 0.000477),
    ("Mutant B scFv, scFv(R18K, N152K, D180N) (scFv, VL-linker-VH; histidine-tagged, from E. coli BL21; also called Mut B; not shown: histidine tag from the pADL-22c vector) scFv: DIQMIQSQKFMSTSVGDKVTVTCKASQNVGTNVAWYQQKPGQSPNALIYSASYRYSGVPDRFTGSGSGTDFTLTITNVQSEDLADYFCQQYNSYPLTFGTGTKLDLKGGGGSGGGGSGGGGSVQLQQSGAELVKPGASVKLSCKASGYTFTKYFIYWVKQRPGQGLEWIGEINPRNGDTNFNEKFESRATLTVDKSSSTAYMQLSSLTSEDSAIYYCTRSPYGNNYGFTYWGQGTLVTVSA", "3.91e-05"),
]

Attribution: patent US20250011413A1
